Source: the supplement of paper PMC8149375

Tested on: 769-P
Experiment: GI50 of drug in presence of dasatinib; higher = less potent
Settings: treatment: drug + dasatinib (fixed dose, not stated); 5 days
PROPERTY: log10(GI50 of drug) (log10 of the value in µM)
A value of 2 here means GI50 of drug of 100 in µM, since values are log10.

Past entries and their recorded results:
COMPOUND: O=C1NCCc2[nH]c(-c3ccncc3)cc21 + Cc1nc(Nc2ncc(C(=O)Nc3c(C)cccc3Cl)s2)cc(N2CCN(CCO)CC2)n1
log10(GI50 of drug): 0.92

COMPOUND: Clc1ccc(C2(c3ccc(-c4cn[nH]c4)cc3)CCNCC2)cc1 [AT7867] + Cc1nc(Nc2ncc(C(=O)Nc3c(C)cccc3Cl)s2)cc(N2CCN(CCO)CC2)n1
log10(GI50 of drug): 0.23

COMPOUND: Cc1cc(CN2CCN(c3c(Br)cnc4[nH]c(-c5ccc(N6CCN(C)CC6)cc5)nc34)CC2)no1 + Cc1nc(Nc2ncc(C(=O)Nc3c(C)cccc3Cl)s2)cc(N2CCN(CCO)CC2)n1
log10(GI50 of drug): -0.30

COMPOUND: O=C(Nc1ccc(OC(F)(F)F)cc1)c1sccc1NCc1ccnc2ccccc12 [OSI-930] + Cc1nc(Nc2ncc(C(=O)Nc3c(C)cccc3Cl)s2)cc(N2CCN(CCO)CC2)n1
log10(GI50 of drug): 0.49

COMPOUND: N#C/C(=C\c1ccc(O)c(O)c1)C(=O)NCc1ccccc1 [AG-490] + Cc1nc(Nc2ncc(C(=O)Nc3c(C)cccc3Cl)s2)cc(N2CCN(CCO)CC2)n1
log10(GI50 of drug): 0.93

Summary for this compound, CCc1cc(Nc2nccc(-c3c(-c4ccc(OC)c(C(=O)Nc5c(F)cccc5F)c4)nc4ccccn34)n2)c(OC)cc1N1CCC(N2CCN(S(C)(=O)=O)CC2)CC1 + Cc1nc(Nc2ncc(C(=O)Nc3c(C)cccc3Cl)s2)cc(N2CCN(CCO)CC2)n1 : log10(GI50 of drug) is 0.49

log10(GI50 of drug) reading for CC[C@@H]1C(=O)N(C)c2cnc(Nc3ccc(C(=O)NC4CCN(C)CC4)cc3OC)nc2N1C1CCCC1 [BI 2536] + Cc1nc(Nc2ncc(C(=O)Nc3c(C)cccc3Cl)s2)cc(N2CCN(CCO)CC2)n1 : -1.25

Lab note: COc1cc2nccc(Oc3ccc(NC(=O)Nc4ccc(F)cc4F)c(F)c3)c2cc1OC [Ki8751] + Cc1nc(Nc2ncc(C(=O)Nc3c(C)cccc3Cl)s2)cc(N2CCN(CCO)CC2)n1 gave log10(GI50 of drug) of 0.04
